- Tested target: T1, purified human activated C1s protein, two-chain form (Homo sapiens, UniProt P09871 16-688)
- T1 construct: Purified protein bought from EMD Millipore; Biotin-labeled in the clone screen; also called active C1s; native C1s protein
- T1 sequence: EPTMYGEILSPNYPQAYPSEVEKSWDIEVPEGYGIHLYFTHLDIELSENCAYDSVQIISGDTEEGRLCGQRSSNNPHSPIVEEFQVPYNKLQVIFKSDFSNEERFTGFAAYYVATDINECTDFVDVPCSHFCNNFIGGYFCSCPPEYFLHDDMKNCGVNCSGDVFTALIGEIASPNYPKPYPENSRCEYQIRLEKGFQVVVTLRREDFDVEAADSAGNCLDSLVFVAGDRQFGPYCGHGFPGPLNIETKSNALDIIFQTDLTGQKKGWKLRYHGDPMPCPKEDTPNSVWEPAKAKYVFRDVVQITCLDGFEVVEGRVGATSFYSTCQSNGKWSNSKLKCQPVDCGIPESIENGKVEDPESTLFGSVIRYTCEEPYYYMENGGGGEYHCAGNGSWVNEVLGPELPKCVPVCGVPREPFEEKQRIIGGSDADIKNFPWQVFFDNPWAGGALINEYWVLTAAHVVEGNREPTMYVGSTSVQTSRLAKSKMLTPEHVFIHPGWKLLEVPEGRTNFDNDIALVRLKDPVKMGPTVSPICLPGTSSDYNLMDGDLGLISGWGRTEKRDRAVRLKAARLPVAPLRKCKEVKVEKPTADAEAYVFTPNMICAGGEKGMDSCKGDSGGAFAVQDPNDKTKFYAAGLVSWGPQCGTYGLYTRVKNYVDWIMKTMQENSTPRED
- Test summary: bio-layer interferometry (BLI), kinetic analysis
Reported metric: koff (s⁻¹)
Write down the numeric answer in s⁻¹ and omit the unit.

Some binders with recorded koff:
binder="antibody IPN-M15 (antibody, V domains shown, Mouse monoclonal antibody (NZBW hybridoma)) VH: EVKLEQSGAELVRPGASVKLSCTASGFNIKDDYIHWVKQRPEQGLEWIGRIDPADDHTKYAPKFQDKATMTADTSSNTACLQLNSLTSEDTAVYYCAIYGSGWAWFPYWGQGTLVSVSA VL: FALMTQSTDYLAVSLGQRATISCKASQSVDYDGDSYMNWYQQKPGQPPKLLIYAASNLESGIPTRFSGSGFGTDFTLNIHPVEEEDAATYYCQQSNEDPWTFGGGPKLEIK" uom=s⁻¹ observed_result=0.000149
binder="antibody IPN-M2 (antibody, V domains shown, Mouse monoclonal antibody (NZBW hybridoma); Same VL and VH as IPN-M8) VH: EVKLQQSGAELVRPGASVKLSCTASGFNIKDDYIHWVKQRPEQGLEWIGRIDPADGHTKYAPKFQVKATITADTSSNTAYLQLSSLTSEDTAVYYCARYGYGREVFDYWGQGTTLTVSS VL: DIVLTQSPASLAVSLGQRATISCKASQSVDYDGDSYMNWYQQKTGQPPKILIYDASNLESGIPARFSGSGSGTDFTLNIHPVEEEDAAIYYCQQSNEDPWTFGGGTKLEIK" uom=s⁻¹ observed_result=0.000279
binder="antibody IPN-M28 (antibody, V domains shown, Mouse monoclonal antibody (NZBW hybridoma)) VH: EVQLQQSGAELVRPGASVKLSCTASGFNIKDDYIHWVKQRPEQGLEWIGRIDPADDHTKYAPKFQDKATMTADTSSNTACLQLNSLTSEDTAVYYCAIYGSGWAWFPYWGQGTLVSVSA VL: DIVLTQTPDYLAVSLGQRATISCKASQSVDYDGDSYMNWYQQKPGQPPKLLIYAASNLESGIPARFSGSGSGTDFTLNIHPVEEEDAATYYCQQSNEDPWTFGGGTKLEIK" uom=s⁻¹ observed_result=0.000215
binder="antibody IPN-M13 (antibody, V domains shown, Mouse monoclonal antibody (NZBW hybridoma); Same VL and VH as IPN-M1 and IPN-M3) VH: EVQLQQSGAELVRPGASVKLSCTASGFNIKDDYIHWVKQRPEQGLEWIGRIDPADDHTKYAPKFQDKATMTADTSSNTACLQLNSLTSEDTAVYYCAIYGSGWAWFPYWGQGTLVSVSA VL: DIVLTQSTDYLAVSLGQRATISCKASQSVDYDGDSYMNWYQQKPGQPPKLLIYAASNLESGIPARFSGSGSGTDFTLNIHPVEEEDAATYYCQQSNEDPWTFGGGTKLEIK" uom=s⁻¹ observed_result=0.000113

Here's the next entry for you.
Identify measured koff corresponding to antibody IPN-M10 (antibody, V domains shown, Mouse monoclonal antibody (NZBW hybridoma)) VH: QVQLQQPGAELVRPGASVKLSCKVSGYTFTRYWMHWVKQRPGQGLEWIGEINPSNSDTDYNEEFKSKATLTVDKSSSTAYMHLSSLTSEDSAVYYCTIDDSVYGWFAYWGQGTLVTVSA VL: DIVITQSPAIMSASPGERVTMTCSASSSISYMHWYHQKPGTSPKRWIYDTSKLASGVPARFSGSGSGTSYSLTISSMEAEDAATYYCHQRSSFPTFGAGTKLELK
0.000369
